Data provenance: patent US20260248787A9

# assay.info: Phase 1/2 clinical study, plasma pharmacokinetic evaluation
# Type: in vivo, human
# assay.context: human, plasma, oral, 120 mg, Table 15 cut-off; 120 mg BID Arm A, Cycle 2 Day 1, N=6, mean
# Protocol: In the present test of the present compound, PK samples have been collected in up to 24 patients dosed in dose groups of 40, 80, 100, and 120 mg BID Arm A, and in dose groups of 40 and 60 mg BID Arm B (Table 6). Large preliminary PK inter-patient variability was observed. (1) In the present study, PK samples have been collected in up to 42 patients dosed in dose groups of 40, 80, 100, 120, 140 and 200 mg BID Arm A, and in dose groups of 40, 60, 100, and 200 mg BID Arm B (Table 15). […]
metric.name: AUC(0-t) (ng·h/mL)

[[record]]
smiles_text = "C=C1C[C@@H]2CC[C@H]1[C@@H](C(=O)N1CCC3(CC1)CN(c1ncncc1Oc1ccc(F)cc1C(=O)N(C(C)C)C(C)C)C3)N2"
metric_name = "AUC(0-t)"
measurement = 7970

